# TARGET_UNDER_TEST: recombinant human PAI-1 (Homo sapiens)
# TEST: biochemical
# EXPERIMENTAL_CONTEXT: read-out: Inhibition Rate of PAI-1 Activity (%)
Measured inhibition at 10 µM, listed per entry for reference.
Could you give me the number in %? Just the number is fine.

[
  {
    "STRUCTURE_SMILES_STRING": "CC(C)c1ccc(Oc2ccc(/C=C/C(=O)O)c(Oc3ccc(C(C)C)cc3)c2)cc1",
    "REPORTED_RESULT": 72
  },
  {
    "STRUCTURE_SMILES_STRING": "O=C(O)C(=O)N(Cc1ccc(OC(F)(F)F)cc1)c1ccc(-c2ccc(OC(F)(F)F)cc2)cc1",
    "REPORTED_RESULT": 45
  },
  {
    "STRUCTURE_SMILES_STRING": "CCCCCOc1ccc(-c2ccc(OC(F)(F)F)cc2)cc1N(Cc1ccccc1)C(=O)C(=O)O",
    "REPORTED_RESULT": 94
  }
]

Problem: Provide inhibition at 10 µM value for the following compound: CC(C)(C)c1ccc(N(C(=O)C(=O)O)c2ccccc2-c2ccc(OC(F)(F)F)cc2)cc1
Result: 56

Problem: Provide inhibition at 10 µM value for the following compound: CN(C)c1ccc(N(Cc2ccc(C(C)(C)C)cc2)C(=O)C(=O)O)cc1-c1ccc(OC(F)(F)F)cc1
Result: 93

Problem: Provide inhibition at 10 µM value for the following compound: CC(C)(C)c1ccc(CN(C(=O)C(=O)O)c2ccc(-c3ccc(OC(F)(F)F)cc3)cc2)cc1
Result: 92

Problem: Provide inhibition at 10 µM value for the following compound: O=C(O)C(=O)N(Cc1ccc(F)cc1)c1ccc(-c2ccc(OC(F)(F)F)cc2)cc1
Result: 15

Problem: Provide inhibition at 10 µM value for the following compound: CC(C)(C)c1ccc(CN(C(=O)C(=O)O)c2ccccc2Sc2ccc(OC(F)(F)F)cc2)cc1
Result: 86

Problem: Provide inhibition at 10 µM value for the following compound: O=C(O)C(=O)N(CCCCc1ccccc1)c1ccc(N2CCCCC2)c(-c2ccc(OC(F)(F)F)cc2)c1
Result: 99

* * *

# TARGET_UNDER_TEST: recombinant human PAI-1 (Homo sapiens, UniProt P05121)
# Sequence (P05121 24-402): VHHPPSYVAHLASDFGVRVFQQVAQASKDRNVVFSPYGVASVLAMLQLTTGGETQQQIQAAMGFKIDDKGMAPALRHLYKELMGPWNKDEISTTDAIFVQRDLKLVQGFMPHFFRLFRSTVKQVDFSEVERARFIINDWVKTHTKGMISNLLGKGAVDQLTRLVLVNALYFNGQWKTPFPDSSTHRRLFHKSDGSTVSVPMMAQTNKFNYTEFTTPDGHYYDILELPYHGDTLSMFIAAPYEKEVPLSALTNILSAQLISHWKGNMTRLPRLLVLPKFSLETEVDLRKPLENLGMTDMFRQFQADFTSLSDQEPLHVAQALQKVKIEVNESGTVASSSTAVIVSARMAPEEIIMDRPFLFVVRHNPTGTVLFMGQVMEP
# TEST: Test Example 2: Human PAI-1 Inhibitory Activity (pH 7.4 HEPES buffer, 10 minutes incubation with two-chain tPA)
# Assay type: biochemical
# Parameters: purchased Molecular Innovations, Inc
# EXPERIMENTAL_CONTEXT: read-out: Inhibition Rate of PAI-1 Activity (%)
Measured inhibition at 0.3 µM, listed per entry for reference.
Could you give me the number in %? Just the number is fine.

[
  {
    "COMPOUND": "CC(C)(Oc1cccc(-c2ccc(OC(F)(F)F)cc2)c1OCc1ccc(C(C)(C)C)cc1)C(=O)O",
    "TARGET_UNDER_TEST": "recombinant human PAI-1 (Homo sapiens, UniProt P05121)",
    "UNIT_SYMBOL": "%",
    "REPORTED_RESULT": 6
  }
]

Query compound follows.
Problem: Provide inhibition at 0.3 µM value for the following compound: CCCCOc1ccc(N(CCCCc2ccccc2)C(=O)C(=O)O)cc1-c1ccc(OC(F)(F)F)cc1
Result: 7

* * *

# TARGET_UNDER_TEST: recombinant human PAI-1 (Homo sapiens)
# TEST: Test Example 2: Human PAI-1 Inhibitory Activity (pH 7.4 HEPES buffer, 10 minutes incubation with two-chain tPA)
# Format: biochemical
# Parameters: purchased Molecular Innovations, Inc
# EXPERIMENTAL_CONTEXT: read-out: Inhibition Rate of PAI-1 Activity (%)
MEASURED_ATTRIBUTE: inhibition at 1 µM (%)
Could you give me the number in %? Just the number is fine.

Worked cases, inhibition at 1 µM given:
[
  {
    "STRUCTURE_SMILES_STRING": "CC(C)c1ccccc1Oc1cc(-c2ccc(OC(F)(F)F)cc2)ccc1/C=C/C(=O)O",
    "UNIT_SYMBOL": "%",
    "REPORTED_RESULT": 91
  },
  {
    "STRUCTURE_SMILES_STRING": "O=C(O)C(=O)N(Cc1ccc2ccccc2c1)c1ccc(-c2ccc(OC(F)(F)F)cc2)cc1",
    "UNIT_SYMBOL": "%",
    "REPORTED_RESULT": 27
  },
  {
    "STRUCTURE_SMILES_STRING": "CC(C)(C)c1ccc(Sc2cc(-c3ccc(OC(F)(F)F)cc3)ccc2/C=C/C(=O)O)cc1",
    "UNIT_SYMBOL": "%",
    "REPORTED_RESULT": 97
  },
  {
    "STRUCTURE_SMILES_STRING": "Cc1cccc(-c2ccc(Oc3ccc(C(C)(C)C)cc3)c(OCC(=O)O)c2)c1",
    "UNIT_SYMBOL": "%",
    "REPORTED_RESULT": 28
  },
  {
    "STRUCTURE_SMILES_STRING": "CCCCCCCCCOc1cc(-c2ccc(OC(F)(F)F)cc2)ccc1N(CCCCc1ccccc1)C(=O)C(=O)O",
    "UNIT_SYMBOL": "%",
    "REPORTED_RESULT": 97
  },
  {
    "STRUCTURE_SMILES_STRING": "CCCCOc1ccc(N(CCCCc2ccccc2)C(=O)C(=O)O)cc1-c1ccc(OC(F)(F)F)cc1",
    "UNIT_SYMBOL": "%",
    "REPORTED_RESULT": 41
  },
  {
    "STRUCTURE_SMILES_STRING": "CCCCCOc1ccc(-c2cccc(C(F)(F)F)c2)cc1N(CCCCc1ccccc1)C(=O)C(=O)O",
    "UNIT_SYMBOL": "%",
    "REPORTED_RESULT": 80
  }
]

Problem: Provide inhibition at 1 µM value for the following compound: CCCCCOc1cc(-c2cccc(OC(F)(F)F)c2)ccc1N(CCCCc1ccccc1)C(=O)C(=O)O
Result: 75

* * *

# TARGET_UNDER_TEST: recombinant human PAI-1 (Homo sapiens, UniProt P05121)
# TEST: biochemical
# EXPERIMENTAL_CONTEXT: read-out: Inhibition Rate of PAI-1 Activity (%)
# if value of inhibition at 25 µM reaches 90%, tag Fulfilled; if it stays below, tag Not fulfilled

Would you please look over these solved cases?
[
  {
    "COMPOUND": "CCCCCN(C(=O)C(=O)O)c1ccc(-c2ccc(OC(F)(F)F)cc2)cc1 [Compound 254]",
    "CLASS_NAME": "Not fulfilled"
  },
  {
    "COMPOUND": "CC(C)(C)c1ccc(CN(C(=O)C(=O)O)c2ccc(C(F)(F)F)cc2-c2ccc(OC(F)(F)F)cc2)cc1 [Compound 169]",
    "CLASS_NAME": "Not fulfilled"
  }
]

Problem: Quick check, inhibition at 25 µM >= 90%? CCCCc1ccc(-c2ccc(N(Cc3ccc(C(C)(C)C)cc3)C(=O)C(=O)O)cc2)cc1 [Compound 164]
Result: Fulfilled

Problem: Quick check, inhibition at 25 µM >= 90%? CC(C)(C)c1ccc(COc2c(Cl)cc(-c3ccc(OC(F)(F)F)cc3)cc2CCC(=O)O)cc1 [Compound 92]
Result: Fulfilled

* * *

# TARGET_UNDER_TEST: recombinant human PAI-1 (Homo sapiens)
# TEST: biochemical
# EXPERIMENTAL_CONTEXT: read-out: Inhibition Rate of PAI-1 Activity (%)
MEASURED_ATTRIBUTE: inhibition at 5 µM

Worked cases, inhibition at 5 µM given:
[
  {
    "COMPOUND": "CC(C)(C)c1ccc(COc2ccc(Oc3ccc(OC(F)(F)F)cc3)cc2/C=C/C(=O)O)cc1 [Compound 95]",
    "inhibition at 5 µM": "28%"
  },
  {
    "COMPOUND": "CC(C)(C)c1ccc(COc2cc(-c3ccc(OC(F)(F)F)cc3)ccc2/C=C/C(=O)O)cc1 [Compound 75]",
    "inhibition at 5 µM": "25%"
  },
  {
    "COMPOUND": "O=C(O)C(=O)N(Cc1ccccc1)c1c(Cl)cc(-c2ccc(OC(F)(F)F)cc2)cc1Cl [Compound 180]",
    "inhibition at 5 µM": "19%"
  }
]

Problem: Provide inhibition at 5 µM value for the following compound: CC(C)(C)c1ccc(COc2c(/C=C/C(=O)O)cccc2-c2ccc(OC(F)(F)F)cc2)cc1 [Compound 87]
Result: 44%

* * *

# TARGET_UNDER_TEST: recombinant human PAI-1 (Homo sapiens)
# TEST: biochemical
# EXPERIMENTAL_CONTEXT: read-out: Inhibition Rate of PAI-1 Activity (%)
MEASURED_ATTRIBUTE: inhibition at 10 µM (%)
Could you give me the number in %? Just the number is fine.

Worked cases, inhibition at 10 µM given:
[
  {
    "STRUCTURE_SMILES_STRING": "O=C(O)C(=O)N(Cc1ccc(Cl)cc1)c1ccc(-c2ccc(OC(F)(F)F)cc2)cc1",
    "UNIT_SYMBOL": "%",
    "inhibition at 10 µM": 49
  },
  {
    "STRUCTURE_SMILES_STRING": "CC(C)(C)c1ccc(-c2ccc(Oc3ccc(-c4ccc(OC(F)(F)F)cc4)cc3/C=C/C(=O)O)c(CCC(=O)O)c2)cc1",
    "UNIT_SYMBOL": "%",
    "inhibition at 10 µM": 91
  },
  {
    "STRUCTURE_SMILES_STRING": "Cc1cc(N(Cc2ccc(C(C)(C)C)cc2)C(=O)C(=O)O)ccc1-c1ccc(OC(F)(F)F)cc1",
    "UNIT_SYMBOL": "%",
    "inhibition at 10 µM": 86
  },
  {
    "STRUCTURE_SMILES_STRING": "CC(C)(C)c1ccc(COc2cc(-c3ccc(OC(F)(F)F)cc3)ccc2CCC(=O)O)cc1",
    "UNIT_SYMBOL": "%",
    "inhibition at 10 µM": 54
  },
  {
    "STRUCTURE_SMILES_STRING": "CCCCCCOc1ccc(-c2ccc(OC(F)(F)F)cc2)cc1N(CCCCc1ccccc1)C(=O)C(=O)O",
    "UNIT_SYMBOL": "%",
    "inhibition at 10 µM": 97
  }
]

Problem: Provide inhibition at 10 µM value for the following compound: CC(C)(C)c1ccc(CN(C(=O)C(=O)O)c2ccc(-c3ccc(C(F)(F)F)cc3)cc2)cc1
Result: 35

Problem: Provide inhibition at 10 µM value for the following compound: CC(C)Oc1ccc(N(Cc2ccc(C(C)(C)C)cc2)C(=O)C(=O)O)cc1-c1ccc(OC(F)(F)F)cc1
Result: 96

Problem: Provide inhibition at 10 µM value for the following compound: O=C(O)CCc1cc(-c2ccc(OC(F)(F)F)cc2)ccc1OCCCCCc1ccccc1
Result: 77

Entry source: patent EP2272817A1
